Hi there, I'd appreciate the recorded growth for every entry that follows.
# System: K-562 leukemia
# methodDescription: NCI-60 one-dose screen, 48 h (100 = growth as untreated, 0 = no growth, -100 = all killed)
# testSettings: 10 µM unless noted
This is part of a sample that, as a whole, favours compounds with a hit. Of some 83,000 tested, about 20% had one in any assay.
Return type: number; implicit unit %.

Please report the recorded growth for C#C[C@]1(O)CC[C@H]2[C@@H]3CC=C4c5nc(N)sc5CC[C@]4(C)[C@H]3CC[C@@]21C .
29.7

Please report the recorded growth for CCn1cc(-c2[nH]c(=S)ncc2-c2ccc(Cl)cc2)c(-c2ccc(Br)cc2)n1 .
120

Please report the recorded growth for CN(C)c1ccc(N=Nc2ccc3ccccc3c2)cc1 .
82.6

Please report the recorded growth for CC(C)(C)c1cc(C(=O)Nc2cc3ccccc3cc2C(=O)NCCN)cc(C(C)(C)C)c1 .
-76.9

Please report the recorded growth for CCN(CC)c1ccc(/C=C/C=C2\NC(=O)NC2=O)cc1 .
13.9

---

# Test system: IGROV1 ovarian
# methodDescription: NCI-60 one-dose screen, 48 h
# testSettings: 10 µM unless noted
The panel holds about 83,000 compounds, 20% with a hit somewhere; the sample as a whole holds those more often. The source made the active and inactive calls. How the source made its calls: active means growth percent below 10; inactive means the rest.
Give one outcome, nothing more. List: active, inactive

State the result this test recorded for Cc1ccc(-c2cn(C/C=C3\C=CN(S(=O)(=O)c4ccccc4)CC3)nn2)cc1 .
inactive

State the result this test recorded for C=C(C)[C@@H]1CC[C@]2(C(=O)O)CC[C@]3(C)[C@H](CC[C@@H]4[C@@]5(C)C/C(=C/c6ccco6)C(=O)C(C)(C)[C@@H]5CC[C@]43C)[C@@H]12 .
active

State the result this test recorded for COc1ccc2nc3c(cc2c1)C(=O)CC(C(F)(F)F)C3 (stereo not drawn) .
inactive

---

# System: NCI-H322M lung
# methodDescription: NCI-60 one-dose screen, 48 h (100 = growth as untreated, 0 = no growth, -100 = all killed)
# testSettings: 10 µM unless noted
This is part of a sample that, as a whole, favours compounds with a hit. Of some 83,000 tested, about 20% had one in any assay. Activity calls are given as the source filed them. How the source made its calls: active means growth percent below 10; inactive means the rest.
measure: growth

Request: growth, test system NCI-H322M lung, entry COc1ccc(NCc2cn(-c3ccc(C(=O)O)cc3)nc2-c2ccc(C(=O)O)cc2)cc1C(F)(F)F
89.1% (inactive)

Request: growth, test system NCI-H322M lung, entry O=c1[nH]c2cc(Cl)c(Cl)cc2n2cc3ncccc3c12
97.9% (inactive)

Request: growth, test system NCI-H322M lung, entry Cc1cnc([C@]23CC[C@@H](C)[C@H](C)[C@H]2C2=CC[C@@H]4[C@@]5(C)Cc6c([nH]c7ccccc67)C(C)(C)[C@@H]5CC[C@@]4(C)[C@]2(C)CC3)o1
37% [100 µM] (inactive)

Request: growth, test system NCI-H322M lung, entry Fc1ccc(NC(=S)c2ccccc2)cc1
106% (inactive)

Request: growth, test system NCI-H322M lung, entry CC(C)=CCC[C@](C)(O)[C@H]1CC[C@]2(C)[C@@H]1CC[C@@H]1[C@@]3(C)CC[C@H](OC(=O)CCC(=O)O)C(C)(C)[C@@H]3CC[C@]12C
27.4% [100 µM] (inactive)

Request: growth, test system NCI-H322M lung, entry COc1c(C(C)=O)c(OCCCCOc2c(C(C)=O)c(OC)c3ccoc3c2OC)c(OC)c2occc12
85.2% (inactive)

Request: growth, test system NCI-H322M lung, entry O=S(=O)(NCCCNc1nccc(-c2c(-c3cccc(F)c3)nc3occn23)n1)c1cccc2ccccc12
64.6% (inactive)

Request: growth, test system NCI-H322M lung, entry O=C(Nc1ccc(C(=O)/C=C/c2ccc(N3CCOCC3)cc2)cc1)Nc1ccc([N+](=O)[O-])cc1
63.1% (inactive)

---

# System: NCI-H23 lung
# methodDescription: NCI-60 one-dose screen, 48 h
# testSettings: 10 µM unless noted
Compounds without any hit were thinned out: in the full panel of roughly 83,000, 20% have a hit. The source made the active and inactive calls. Rule for the calls: active = growth percent below 10; inactive = the rest.
Give one outcome, nothing more. List: Yes = active, No = inactive

State the result this test recorded for Cc1cc(C)c(O)c(CNCCCNCc2cc(C)cc(C)c2O)c1 .
No

State the result this test recorded for COc1cc(Cl)cc(-c2nn(C(=O)NS(=O)(=O)c3ccccc3)cc2-c2ccncc2)c1 .
No

State the result this test recorded for COc1ccc(N(c2nc(-c3ccc([N+](=O)[O-])cc3)cs2)C(C)C)cc1 .
No

State the result this test recorded for CC[C@@](C)(NC(=O)[C@H](C)NC(=O)CCNC(=O)C(C)(C)NC(=O)[C@H](C)NC(=O)[C@@H]1CCCN1C(=O)[C@@](C)(CC)NC(=O)[C@H](Cc1ccccc1)NC(=O)C1CCCN1C(=O)C(C)(C)NC(=O)C1CCCN1C(=O)C(C)(C)NC(C)=O)C(=O)NCCC(=O)N[C@@H](CC(C)C)C(=O)NC(C)(C)C(=O)NCCC(=O)N[C@@H](CC(C)C)C(=O)NC(C)(C)C(=O)NC(C)(C)C(=O)N[C@@H](CC(C)C)C(=O)NCCC(=O)NCO (stereo partly specified) .
Yes

State the result this test recorded for CC(C)(C)c1cc(C(=O)Nc2ccccc2C(=O)NCCN)cc(C(C)(C)C)c1 .
No

State the result this test recorded for CC1(C)OC2[C@@H](CNC(=O)NC(=O)NC(=O)CI)O[C@@H](n3cnc4c(NC(=O)Nc5ccccc5)ncnc43)[C@H]2O1 (stereo partly specified) .
No

---

# Test system: PC-3 prostate
# methodDescription: NCI-60 one-dose screen, 48 h
# testSettings: 10 µM unless noted
Compounds without any hit were thinned out: in the full panel of roughly 83,000, 20% have a hit. Active and inactive are the calls of the source. Rule for the calls: active = growth percent below 10; inactive = the rest.
Give one outcome, nothing more. List: t for active, f for inactive

State the result this test recorded for CCN(CC)CCCNCc1cc(-c2ccccc2)nc2ccccc12 .
f

State the result this test recorded for C=C(C)[C@@H]1CC[C@]2(COCCC#N)CC[C@]3(C)[C@H](CC[C@@H]4[C@@](C)(CCCNCCC#N)[C@H](C(=C)C)CC[C@]43C)[C@@H]12 .
f

State the result this test recorded for CCOC(=O)COc1ccc2c(c1)O/C(=C\c1ccc(O)cc1)C2=O .
f

State the result this test recorded for O=[N+]([O-])c1cccc(N=NNc2cccc([N+](=O)[O-])c2)c1 .
f

State the result this test recorded for CCc1cccc(Cl)c1 .
f

State the result this test recorded for Cc1cnc([C@]23CC[C@@H](C)[C@H](C)[C@H]2C2=CC[C@@H]4[C@@]5(C)Cc6c([nH]c7ccccc67)C(C)(C)[C@@H]5CC[C@@]4(C)[C@]2(C)CC3)o1 .
f

State the result this test recorded for COc1ccc(/C=C/C=C\C(=O)c2ccc(-n3ccnc3)cc2)cc1 .
f

State the result this test recorded for O=C1/C(=C/c2cccc(OCc3ccccc3)c2)Oc2cc(OCCN3CCCCC3)ccc21 .
f

State the result this test recorded for CCOc1ccc(S(=O)(=O)Nc2ccc3c(c2)N(S(=O)(=O)CC)CCC3)cc1 .
f

State the result this test recorded for c1ccc2c(c1)CN(CCCN1CCOCC1)C2 .
f

State the result this test recorded for O=C1COCCN1c1ccc(Nc2nc(Cl)nc(N3CCOCC3)n2)cc1 .
f

State the result this test recorded for CCOC(=O)C(=Cc1ccccc1[N+](=O)[O-])C(=O)OCC .
f

State the result this test recorded for COc1ccc2nc3cc(Cl)ccc3c(Nc3ccc(O)cc3)c2c1 .
f

State the result this test recorded for C=C(C)[C@@H]1CC[C@]2(C)[C@H](CC=C3[C@@H]4[C@@H](C)[C@H](C)CC[C@]4(C(N)=O)CC[C@]32C)[C@@]1(C)CCC#N .
f

State the result this test recorded for C=CC1=C(C)C2=NC1=CC1=NC(=CC3=C(C)C4=C(O)C(C(=O)O)C(=C5NC(=C2)C(C)C5CCC(=O)O)C4=N3)C(CC)=C1C (centres undefined) .
f

State the result this test recorded for COc1ccc(-c2nc3ccccn3c2/C=C/C(=O)c2cc(OC)c(OC)c(OC)c2)cc1OC .
f

State the result this test recorded for CCN(CC)CCCOc1ccc2c(c1)O/C(=C\c1cccc(OC)c1)C2=O .
f

State the result this test recorded for Oc1ccc(N=Nc2nccs2)c(O)c1 .
f

State the result this test recorded for c1cc2ccc1CNCCN1CCNCc3ccc(cc3)Oc3ccc(cc3)CNCCN(CCNCc3ccc(cc3)O2)CCNCc2ccc(cc2)Oc2ccc(cc2)CNCC1 .
t

---

# Test system: T-47D breast
# methodDescription: NCI-60 one-dose screen, 48 h
# testSettings: 10 µM unless noted
About 83,000 compounds went through this panel and 20% of them were active in at least one assay; those are over-represented in the sample as a whole. Calls of active or inactive are those of the source. How the source made its calls: active means growth percent below 10; inactive means the rest.
Give one outcome, nothing more. List: class 1 = active, class 0 = inactive

State the result this test recorded for COc1ncc(-c2ccc3nccc(C#CCCCCC(=O)O)c3c2)cc1NS(=O)(=O)c1ccc(F)cc1F .
class 1

State the result this test recorded for COc1ccc2c(c1)C(C)Cc1c(Cl)ncnc1N2C (configuration not stated) .
class 1

State the result this test recorded for CC1Cc2c(ncnc2-n2cnc3ccccc32)N(C)c2ccccc21 (configuration not stated) .
class 0

State the result this test recorded for O=C1COCCN1c1ccc(NCc2cn(Cc3cccc4ccccc34)c3ccccc23)cc1 .
class 0

State the result this test recorded for COc1cc2c(c(OC)c1OC)-c1cc(I)c(O)cc1[C@@H](NC(C)=O)CC2 .
class 0

State the result this test recorded for COc1cc(NN=C(c2ccc(O)cc2)c2ccc(O)cc2)c([N+](=O)[O-])cc1[N+](=O)[O-] .
class 1

State the result this test recorded for COc1ccc2c(c1)C(C)Cc1c(ncnc1-n1cnc3ccccc31)N2C (configuration not stated) .
class 0

State the result this test recorded for Cn1cc(-c2noc(C(=O)c3cn(C)c4ncccc34)n2)c2ccccc21 .
class 0

State the result this test recorded for CC1(C)CC[C@]2(C(=O)O)CC[C@]3(C)C(=CC[C@@H]4[C@@]5(C)C/C(=C/c6cccnc6)[C@H](O)C(C)(C)[C@@H]5CC[C@]43C)[C@@H]2C1 .
class 0

State the result this test recorded for O=C1CC(c2ccccc2)Cc2nc3ccc(Cl)cc3cc21 (configuration not stated) .
class 0

State the result this test recorded for COc1ccc(-c2cc(-c3ccc(Cl)cc3)nc(NCCCCNc3ccnc4cc(Cl)ccc34)n2)cc1 .
class 0

State the result this test recorded for C[C@H]1[C@H](C)CC[C@]2(C(=O)O)CC[C@]3(C)C(=CC[C@@H]4[C@@]5(C)C/C(=C/c6ccco6)C(=O)C(C)(C)[C@@H]5CC[C@]43C)[C@H]12 .
class 1

State the result this test recorded for CC(C)CCSc1nc(N)nc2nc[nH]c12 .
class 0

State the result this test recorded for CC[C@@H]1NC(=O)[C@@H]2CCCCN2C(=O)[C@@H]2CCCN2C(=O)[C@@H](NC(=O)[C@H](Cc2cc(F)cc(F)c2)NC(=O)Nc2ccc(C3CC3)cc2F)[C@H](C)OC(=O)[C@@H]2C[C@@H](C)CN2C1=O .
class 1

State the result this test recorded for CC1(C)[C@@H](NOCCCN)CC[C@]2(C)[C@H]3C(=O)C=C4[C@@H]5C[C@](C)(C(=O)O)CC[C@]5(C)CC[C@@]4(C)[C@]3(C)CC[C@@H]12 .
class 1

State the result this test recorded for O=C1Cc2c(sc3c(F)cccc23)C(c2ccccc2[N+](=O)[O-])N1 (configuration not stated) .
class 0

State the result this test recorded for CCN(CC)c1ccc(/C=C/C=C2\NC(=O)NC2=O)cc1 .
class 0
